Where these numbers come from: PubChem BioAssay (NCI)

TGI overview
system: NCI-H226 lung; assay: NCI tumour cell line growth inhibition, 48 h

O=C1CCCCN1CCCCC#Cc1cccc(C#Cc2cccnc2)c1 : 34 µM
COc1c(O)c2c(=O)cc(OC)c3c4c(OC)cc(=O)c5c(O)c(OC)c6c(c(c1C(C(C)O)C6C(C)O)c23)c54 (centres undefined) : 5.46 µM
COc1ccc(CN2C3CC2CN(c2ccc(-c4cc(OCC(C)(C)O)cn5ncc(C#N)c45)cn2)C3)cn1 : > 100 µM
CCOP(=O)(/C=C\n1ccc(N)nc1=O)OCC : > 100 µM
O=c1cc(-c2cc(O)c(O)c(-c3c(O)cc4oc(-c5ccc(O)c(O)c5)cc(=O)c4c3O)c2)oc2cc(O)cc(O)c12 : > 25 µM

Lab note: next compound to report on.
Ask: Any idea what its TGI is? The compound is CCC(C(=O)C(=O)OC)P1(=O)OC(C)(C)CN1C(C)(C)C (centres undefined)
Reply: > 100 µM

---

tested on: SF-539 CNS; experiment: NCI tumour cell line growth inhibition, 48 h
TGI overview

# example entries with known answers
COC(=O)/C(C#N)=C(/NCCN)Nc1ccccc1 : > 100 µM
Cc1cc(N(CCC#N)CCC#N)ccc1/C=C(\NC(=O)/C=C/c1ccccc1)C(=O)NN : > 100 µM
Cn1c2ccccc2c(=O)c2c(O)cc3c(c21)C=CC1(CCCCC1)O3 : > 10 µM
COc1ccc(NC(=S)NC(=O)c2ccc3c(c2)Sc2ccccc2O3)c([N+](=O)[O-])c1 : > 100 µM
C(=N\Nc1nnn(Cc2ccccc2)n1)/c1ccccc1 : 32.5 µM

Ask: Any idea what its TGI is? The molecule is `Nc1nn2c(=O)c3ccccc3nc2s1`
Reply: > 100 µM

---

system: UACC-62 melanoma; assay: NCI tumour cell line growth inhibition, 48 h; in the data active means GI50 below about 0.43 µM; inactive means the rest
Reply using exactly one outcome from 1.0 = active, 0.0 = inactive

Would you please look over these solved cases?
COc1ccc(CN2C3CC2CN(c2ccc(-c4cc(OCC(C)(C)O)cn5ncc(C#N)c45)cn2)C3)cn1 : 0.0
O=C(O)[C@@H](Cc1ccc2ccccc2c1)NC(=O)n1c2ccccc2c2ccccc21 : 0.0
O=c1c(F)cn(Cc2ccccc2CCl)c(=O)n1Cc1ccccc1CCl : 0.0
O=C1CCCCN1CCCCC#Cc1cccc(C#Cc2cccnc2)c1 : 0.0
O=[N+]([O-])c1ccc(Sc2c3ccccc3nc3cc(Cl)ccc23)cc1 : 0.0

Ask: Write down the call the test reported for this compound. Item: `COc1ccc2c(c1)/C(=C/c1cc(OC)c(OC)c(OC)c1)C(=O)N2`
Reply: 1.0

Ask: Write down the call the test reported for this compound. Item: C=C1C(=O)O[C@H]2[C@H]1CC/C(COC(=O)NCC(C)c1ccc(CC(C)C)cc1)=C\CC[C@@]1(C)O[C@@H]21 (some centres not stated)
Reply: 0.0

---

test system: RPMI-8226 leukemia; experiment: NCI tumour cell line growth inhibition, 48 h; in the data active = GI50 below about 0.43 µM; inactive = the rest
Reply using exactly one outcome from class 1 = active, class 0 = inactive

Would you please look over these solved cases?
O=C(O)[C@@H](Cc1ccc2ccccc2c1)NC(=O)n1c2ccccc2c2ccccc21 : class 0
C=C1C[C@@H]2CC[C@@]34C[C@H]5O[C@H]6[C@@H](O3)[C@H]3O[C@H](CC[C@@H]3O[C@H]6[C@@H]5O4)CC(=O)C[C@@H]3[C@@H](OC)[C@@H](C[C@H](O)CN)O[C@H]3C[C@H]3O[C@@H](CC[C@@H]1O2)C[C@@H](C)C3=C : class 1
Cc1ccc(-c2nc3nc(-c4ccc(F)cc4)nc(N4CCCNCC4)c3o2)cc1 : class 0
O=C(N/N=C/c1ccccc1O)c1ccccc1 : class 0
COc1ccc(CN2C3CC2CN(c2ccc(-c4cc(OCC(C)(C)O)cn5ncc(C#N)c45)cn2)C3)cn1 : class 0
O=C(N[C@@H](C[Se][Se]C[C@H](NC(=O)c1ccc(Br)cc1F)C(=O)O)C(=O)O)c1ccc(Br)cc1F : class 0
CCCCCCCCCCCCCCCC[N+]1(C)CCOCC1 : class 0

Now consider a different compound.
Ask: Write down the call the test reported for this compound. Item: `C=C1C(=O)O[C@H]2[C@H]1CC/C(C=Nc1c(N)cc(C(F)(F)F)cc1Br)=C\CC[C@@]1(C)O[C@@H]21`
Reply: class 1

---

system: NCI/ADR-RES ovarian; experiment: NCI tumour cell line growth inhibition, 48 h
METRIC NAME: TGI (µM)
Provide only the numeric value, understood in µM.

Ask: Any idea what its TGI is? The compound is `O=C(N/N=C/c1ccccc1O)c1ccccc1`
Reply: 27.6

Ask: Any idea what its TGI is? The compound is `CCCCn1c(-c2ccc(C(=O)O/N=C(\N)c3ccc4c(c3)OCO4)cc2)nc(-c2ccccc2)c1-c1ccccc1`
Reply: 4.48

Ask: Any idea what its TGI is? The compound is `COc1cnc2c(c1)C(=O)c1c-2n(CCCN2CCN(C)CC2)c(=O)c2cc([N+](=O)[O-])ccc12`
Reply: 5.82

---

system: SNB-19 CNS; assay: NCI tumour cell line growth inhibition, 48 h
METRIC NAME: TGI (µM)
Provide only the numeric value, understood in µM.

Ask: Any idea what its TGI is? The compound is `CC(C)(C)c1cc(C=C(C#N)C#N)cc(C(C)(C)C)c1O`
Reply: 115

---

TGI overview
system: MALME-3M melanoma; assay: NCI tumour cell line growth inhibition, 48 h

C=C(C)C1C/C=C(/C)CCCC2(CCC3=C(CC(C(=C)C)C/C=C(/C)CCC3)O2)C(=O)C1 (stereo unspecified) : > 100 µM
OCc1ccc2c(c1)CC1(Cc3ccc(/C=N/O)cc3C1)C2 (stereo unspecified) : > 78.8 µM
COC(=O)[C@H](Cc1ccccc1)NC(=O)CCCCCCC(=O)NO : 38.6 µM

Ask: Any idea what its TGI is? The molecule is `CC(C)CCC1(CCN)C(=O)NC(=O)NC1=O`
Reply: > 100 µM

Ask: Any idea what its TGI is? The molecule is Nc1ncnc2c1ncn2CC(O)CO (stereo unspecified)
Reply: > 100 µM

---

test system: SK-MEL-2 melanoma; experiment: NCI tumour cell line growth inhibition, 48 h
METRIC NAME: TGI

# example entries with known answers
CN(C)CC1CCC(CN(C)C)C1=O (centres undefined) : 21.6 µM
c1c2c(cc(-n3nnc4c3CCCCCC4)c1-n1nnc3c1CCCCCC3)CCCCCC2 : 34.6 µM
C=C(C)C1C/C=C(/C)CCCC2(CCC3=C(CC(C(=C)C)C/C=C(/C)CCC3)O2)C(=O)C1 (centres undefined) : > 100 µM
C=C1C(=O)O[C@H]2[C@H]1CC/C(C=Nc1c(N)cc(C(F)(F)F)cc1Br)=C\CC[C@@]1(C)O[C@@H]21 : 3.47 µM
CC(=O)OC1C(COC(=O)c2ccccc2)OC(Nc2ncc(-c3ccc(Br)cc3)s2)C(OC(=O)c2ccccc2)C1OC(=O)c1ccccc1 (centres undefined) : 35.3 µM
COC(=O)C1(C(=O)OC)CC(=O)c2cc3c(cc2-c2c(cc(OC)c(OC)c2OC)C1)OCO3 : > 211 µM

Ask: Give SK-MEL-2 melanoma TGI for NC(=O)N/N=C1\CC2C3CC4C2C4C13 (centres undefined)
Reply: > 100 µM

Ask: Give SK-MEL-2 melanoma TGI for O=C(c1ccncc1)C1C(=O)c2ccccc2C1C1(O)c2ccccc2CC1C(O)c1ccncc1 (centres undefined)
Reply: 57.3 µM

Ask: Give SK-MEL-2 melanoma TGI for `CC(C)(C)c1cc(C(=O)/C=C/c2ccc3c(c2)OCO3)cc(C(C)(C)C)c1O`
Reply: 10.4 µM

---

tested on: SNB-75 CNS; assay: NCI tumour cell line growth inhibition, 48 h
METRIC NAME: TGI (µM)
Provide only the numeric value, understood in µM.

COc1ccc(CC2COc3cc(O)cc(O)c3C2=O)cc1O (stereo not given) : 6.98
COC1=C(C)C(=O)c2c(c(COC(N)=O)c3n2CC(OC(C)=O)C3OC(C)=O)C1=O (stereo not given) : 1.09

Lab note: next molecule to report on.
Ask: Any idea what its TGI is? The molecule is `O=C(/C=C/c1ccccc1)c1ccc(NCc2nc3ccccc3[nH]2)cc1`
Reply: 20.9

---

system: DMS 114 small cell lung; test: NCI tumour cell line growth inhibition, 48 h
TGI overview

# example entries with known answers
Cn1c2c(c3ccccc31)CCN(CCN1CCN(c3cccc(Cl)c3)CC1)C2=O : > 100 µM
C=C(CN(C)C)C(=O)c1ccccc1[N+](=O)[O-] : 39.1 µM
CCOC(=O)C(NC(=O)c1nc[nH]c1[N+](=O)[O-])C(C)C (configuration not stated) : > 100 µM
O=[N+]([O-])c1ccc(Sc2c3ccccc3nc3cc(Cl)ccc23)cc1 : > 100 µM
Cc1cc(N(CCC#N)CCC#N)ccc1/C=C(\NC(=O)/C=C/c1ccccc1)C(=O)NN : > 100 µM
COC(=O)C1(O)CC(=O)CCC1c1ccc(OC)cc1 (configuration not stated) : > 100 µM

Ask: Any idea what its TGI is? The compound is CN(C)CC1CCC(CN(C)C)C1=O (configuration not stated)
Reply: 11.8 µM
